System: U-2932
Experiment: growth inhibition by drug alone (1 - RLU/untreated control) (fraction); higher = stronger inhibition
Details: 1000 nM; time (day): 6; 177Lu-lilotomab satetraxetan 0 ug/ml
Counter-ions that a name gives are not always drawn.
I would appreciate it if you labelled entries Fulfilled when growth inhibition by drug alone is -0.008 or higher, otherwise Not fulfilled.

Please review the entries below; each comes with its answer.
[[record]]
compound = "O=c1[nH]cc(F)c(=O)[nH]1"
answer_label = "Not fulfilled"

[[record]]
compound = "OCCn1cc(-c2cnc3nnn(Cc4ccc5ncccc5c4)c3n2)cn1"
answer_label = "Not fulfilled"

[[record]]
compound = "CCN(CC)C(=S)SSC(=S)N(CC)CC"
answer_label = "Fulfilled"

[[record]]
compound = "CN1C(=O)C(Cc2c[nH]c3ccccc23)NC1=S (centres undefined)"
answer_label = "Not fulfilled"

[[record]]
compound = "Cn1cc(-c2ccc3nnc(Sc4ccc5ncccc5c4)n3n2)cn1"
answer_label = "Fulfilled"


Incoming: Does C[C@]12CCC(=O)C=C1CC[C@@H]1[C@@H]2[C@@H](O)C[C@@]2(C)[C@H]1CC[C@]2(O)C(=O)CO [Hydrocortisone (Cortisol)] have a reported growth inhibition by drug alone of at least -0.008?
Outgoing: Fulfilled

Incoming: Does CNNCc1ccc(C(=O)NC(C)C)cc1 [Procarbazine hydrochloride (Matulane)] have a reported growth inhibition by drug alone of at least -0.008?
Outgoing: Not fulfilled

Incoming: Does CCN1CCN(Cc2ccc(-c3cc4c(N[C@H](C)c5ccccc5)ncnc4[nH]3)cc2)CC1 have a reported growth inhibition by drug alone of at least -0.008?
Outgoing: Not fulfilled

====

Consider the following compounds and their measured growth inhibition by drug plus 177Lu-lilotomab satetraxetan readings.
Tested on: RIVA
Assay: growth inhibition by drug plus 177Lu-lilotomab satetraxetan (1 - RLU/untreated control) (fraction); higher = stronger inhibition
Conditions: 10 nM; time (day): 6; 177Lu-lilotomab satetraxetan 0.5 ug/ml
Reply with the value as a number alone.

Known growth inhibition by drug plus 177Lu-lilotomab satetraxetan results, listed for orientation:
[[record]]
entry_smiles = "CN1CCN(c2cccc(Nc3nc4c(-c5ccc(S(C)(=O)=O)cc5)cccn4n3)c2)CC1"
target_of_assay = "RIVA"
measured_result = 0.524

[[record]]
entry_smiles = "Nc1ncn([C@H]2C[C@H](O)[C@@H](CO)O2)c(=O)n1"
target_of_assay = "RIVA"
measured_result = 0.567

[[record]]
entry_smiles = "CC(C)(C)c1cnc(CSc2cnc(NC(=O)C3CCNCC3)s2)o1"
target_of_assay = "RIVA"
measured_result = 0.564

[[record]]
entry_smiles = "CC(=O)c1c(C)c2cnc(Nc3ccc(N4CCNCC4)cn3)nc2n(C2CCCC2)c1=O"
target_of_assay = "RIVA"
measured_result = 0.545


Incoming: I'd like to know its growth inhibition by drug plus 177Lu-lilotomab satetraxetan. The compound in question is CC(C)OC(=O)C1=CN(C(=O)c2ccc(F)c(F)c2)CC(C)(C)c2c1[nH]c1ccccc21
Outgoing: 0.598

Incoming: I'd like to know its growth inhibition by drug plus 177Lu-lilotomab satetraxetan. The compound in question is Cc1cccc(-c2[nH]c(C(C)(C)C)nc2-c2ccc3nccnc3c2)n1
Outgoing: 0.65

====

Tested on: RIVA
Experiment: growth inhibition by drug plus 177Lu-lilotomab satetraxetan (1 - RLU/untreated control) (fraction); higher = stronger inhibition
Conditions: 100 nM; time (day): 6; 177Lu-lilotomab satetraxetan 0.5 ug/ml
Structures can show the parent of a compound that is named as a salt.
I would appreciate it if you labelled entries Met when growth inhibition by drug plus 177Lu-lilotomab satetraxetan is 0.5 or higher, otherwise Not met.

Please review the entries below; each comes with its answer.
[[record]]
compound = "O=C1CN2Cc3c(ccc(Cl)c3Cl)N=C2N1 [Anagrelide]"
answer_label = "Met"

[[record]]
compound = "Cc1[nH]c(/C=C2\\C(=O)Nc3ccc(S(=O)(=O)N(C)c4cccc(Cl)c4)cc32)c(C)c1C(=O)N1CCN(C)CC1"
answer_label = "Met"

[[record]]
compound = "CN1CCN(CCOc2cc(OC3CCOCC3)c3c(Nc4c(Cl)ccc5c4OCO5)ncnc3c2)CC1"
answer_label = "Met"

[[record]]
compound = "O=C1c2ccccc2-c2nc3nonc3nc21"
answer_label = "Not met"

[[record]]
compound = "CN1CCN(c2nc(C3=C(c4c[nH]c5ccccc45)C(=O)NC3=O)c3ccccc3n2)CC1"
answer_label = "Met"


Incoming: Does C[C@@H](O[C@H]1OCCN(Cc2n[nH]c(=O)[nH]2)[C@H]1c1ccc(F)cc1)c1cc(C(F)(F)F)cc(C(F)(F)F)c1 [Aprepitant (MK-0869)] have a reported growth inhibition by drug plus 177Lu-lilotomab satetraxetan of at least 0.5?
Outgoing: Not met

Incoming: Does N#Cc1ccc(COC[C@H]2O[C@@H](n3c(NCc4ccc(Cl)c(Cl)c4)nc4c(N)ncnc43)[C@H](O)[C@@H]2O)cc1 have a reported growth inhibition by drug plus 177Lu-lilotomab satetraxetan of at least 0.5?
Outgoing: Met

Incoming: Does CC[C@@]1(O)C(=O)OCc2c1cc1n(c2=O)Cc2cc3c(CN(C)C)c(O)ccc3nc2-1 [Topotecan HCl] have a reported growth inhibition by drug plus 177Lu-lilotomab satetraxetan of at least 0.5?
Outgoing: Met

Incoming: Does CC[C@H](Nc1ncnc2[nH]cnc12)c1nc2cccc(F)c2c(=O)n1-c1ccccc1 have a reported growth inhibition by drug plus 177Lu-lilotomab satetraxetan of at least 0.5?
Outgoing: Met

Incoming: Does COc1cc(N2CCC(N3CCN(C)CC3)CC2)ccc1Nc1ncc(Cl)c(Nc2ccccc2S(=O)(=O)C(C)C)n1 have a reported growth inhibition by drug plus 177Lu-lilotomab satetraxetan of at least 0.5?
Outgoing: Not met

Incoming: Does CN(C)CCCCSC(=N)N have a reported growth inhibition by drug plus 177Lu-lilotomab satetraxetan of at least 0.5?
Outgoing: Not met

Incoming: Does COc1cc(Nc2c(C#N)cnc3cc(OCCCN4CCN(C)CC4)c(OC)cc23)c(Cl)cc1Cl [Bosutinib (SKI-606)] have a reported growth inhibition by drug plus 177Lu-lilotomab satetraxetan of at least 0.5?
Outgoing: Not met

Incoming: Does CCn1c(-c2nonc2N)nc2c(C#CC(C)(C)O)ncc(OC[C@H]3CCCNC3)c21 have a reported growth inhibition by drug plus 177Lu-lilotomab satetraxetan of at least 0.5?
Outgoing: Not met

Incoming: Does CC(C)Oc1cc(Nc2nc(N[C@@H](C)c3ccc(F)cn3)ncc2Cl)n[nH]1 have a reported growth inhibition by drug plus 177Lu-lilotomab satetraxetan of at least 0.5?
Outgoing: Met

Incoming: Does Nc1ccccc1NC(=O)c1ccc(CNc2nccc(-c3cccnc3)n2)cc1 have a reported growth inhibition by drug plus 177Lu-lilotomab satetraxetan of at least 0.5?
Outgoing: Met

Incoming: Does COc1ncc(-c2ccc3nccc(-c4ccnnc4)c3c2)cc1NS(=O)(=O)c1ccc(F)cc1F have a reported growth inhibition by drug plus 177Lu-lilotomab satetraxetan of at least 0.5?
Outgoing: Met

All values here come from the supplement of paper PMC6897291.
